- tgt: T1, biotinylated hBLyS-ECD (human, UniProt Q9Y275 134-285, biotinylated with Biotin-X-X-NHS (molar ratio 7:1), sites not stated)
- T1 construct: The hBLyS-ECD of Embodiment 1 after biotinylation (Embodiment 2); also called biotinylated immunogen; BLyS protein; not shown: His tag of the pCPC vector
- method: receptor-ligand blocking ELISA: BAFF R coated, biotinylated hBLyS-ECD added with titrated antibody, HRP-avidin; blocked partner: BAFF R
measurement type: IC50 (read off the curve)

binder	value
L1D12 (antibody, human IgG1, V domains shown, also called LID12) VH: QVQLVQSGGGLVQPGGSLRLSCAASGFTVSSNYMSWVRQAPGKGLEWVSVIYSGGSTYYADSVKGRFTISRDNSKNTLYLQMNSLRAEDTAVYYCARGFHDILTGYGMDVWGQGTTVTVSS VL: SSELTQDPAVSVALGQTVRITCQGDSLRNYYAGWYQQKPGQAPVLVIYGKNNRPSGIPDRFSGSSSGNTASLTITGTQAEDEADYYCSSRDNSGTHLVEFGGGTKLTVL	~1 nM
